IC50 listing for selected sequences.
- target-entity: HLA-B*07:02
- assay-details: IEDB peptide-MHC binding, purified MHC/competitive/fluorescence; bounds were set here for any values at or beyond the usual limits of such assays
- stated-conditions: source organism: Zaire ebolavirus

> print(dat)
   sequence.chain  test.result
1       GLMHNQDGL    ≥ 81.9 µM

Could you share which IC50 value was measured for GGRRTRREA ?
≥ 120 µM

* * *

- target-entity: HLA-B*83:01
- assay-details: IEDB peptide-MHC binding, purified MHC/competitive/fluorescence; filed as Kd, often an IC50 or EC50 that approximates it; bounds were set here for any values at or beyond the usual limits of such assays
- stated-conditions: source organism: Homo sapiens
outcome-measure: pKd
Conceptually, pKd converts a concentration in mol/L into minus its log10.

Could you share which pKd value was measured for FLNPVIYTF ?
6.62

* * *

- target-entity: HLA-A*03:01
- assay-details: IEDB peptide-MHC binding, purified MHC/direct/fluorescence; filed as Kd, often an IC50 or EC50 that approximates it; bounds were set here for any values at or beyond the usual limits of such assays
- stated-conditions: source organism: Haemophilus influenzae
pKd: −log10 of the molar value.
outcome-measure: pKd

Could you share which pKd value was measured for LIFPAFFLC ?
≤ 4.70

* * *

- target-entity: HLA-A*03:01
- assay-details: IEDB peptide-MHC binding, purified MHC/direct/fluorescence; filed as Kd, often an IC50 or EC50 that approximates it; bounds were set here for any values at or beyond the usual limits of such assays
- stated-conditions: source organism: Mycobacterium tuberculosis str. Haarlem
pKd: −log10 of the molar value.
outcome-measure: pKd

Could you share which pKd value was measured for LPVEYLQVP ?
≤ 4.70

* * *

- target-entity: HLA-B*15:01
- assay-details: IEDB peptide-MHC binding, purified MHC/direct/fluorescence; filed as Kd, often an IC50 or EC50 that approximates it; bounds were set here for any values at or beyond the usual limits of such assays
- stated-conditions: source organism: Mycobacterium tuberculosis str. Haarlem
outcome-measure: Kd

// lookup Kd | system=HLA-B*15:01 | key= LPVEYLQVP
≥ 20 µM

* * *

- target-entity: HLA-A*24:02
- assay-details: IEDB peptide-MHC binding, purified MHC/competitive/radioactivity; filed as Kd, often an IC50 or EC50 that approximates it; bounds were set here for any values at or beyond the usual limits of such assays
- stated-conditions: source organism: Dengue virus 4 Philippines/H241/1956
outcome-measure: Kd
Param answer (str): number followed by unit.

// lookup Kd | system=HLA-A*24:02 | key= IHLAIMAVF
0.0719 µM

* * *

- target-entity: HLA-A*02:11
- assay-details: IEDB peptide-MHC binding, purified MHC/direct/fluorescence; filed as Kd, often an IC50 or EC50 that approximates it; bounds were set here for any values at or beyond the usual limits of such assays
- stated-conditions: source organism: Orthohantavirus sangassouense
outcome-measure: pKd
Conceptually, pKd converts a concentration in mol/L into minus its log10.

Could you share which pKd value was measured for GLYPAQIKA ?
7.48

* * *

- target-entity: HLA-A*02:02
- assay-details: IEDB peptide-MHC binding, purified MHC/competitive/radioactivity; filed as Kd, often an IC50 or EC50 that approximates it; bounds were set here for any values at or beyond the usual limits of such assays
- stated-conditions: source organism: Hepatitis C virus (isolate Th580)
outcome-measure: Kd

Could you share which Kd value was measured for VLSDFKTWL ?
263 nM
